The measurements presented in this section are drawn from patent US4593093A.

Test system: Pseudomonas aeruginosa
experimentalProtocol: Activity in vitro: minimum inhibitory concentration
Type: cell-based
testConditions: Pseudomonas aeruginosa strain 1
Counter-ions that a name gives are not always drawn.
Quick list: log10 MIC per entry.
measurementName: log10 MIC (log10 of the value in µg/mL)

{"compound": "CO/N=C(\\C(=O)N[C@@H]1C(=O)N2C(C(=O)[O-])=C(CSc3nnnn3C)CS[C@H]12)c1c[se]c(N)n1.[Na+]", "log10 MIC": 1.40}
{"compound": "CO/N=C(\\C(=O)N[C@@H]1C(=O)N2C(C(=O)O)=C(COC(C)=O)CS[C@H]12)c1c[se]c(N)n1 [Product D, disodium salt]", "log10 MIC": 1.10}
{"compound": "CO/N=C(\\C(=O)N[C@@H]1C(=O)N2C(C(=O)O)=C(CSc3nc(=O)c(O)nn3C)C[S+]([O-])[C@H]12)c1c[se]c(N)n1 (stereo partly drawn) [Product E, disodium salt]", "log10 MIC": 2.00}
{"compound": "CC(=O)OCC1=C(C(=O)[O-])N2C(=O)[C@@H](NC(=O)/C(=N\\O)c3c[se]c(N)n3)[C@H]2SC1.[Na+]", "log10 MIC": 1.70}
{"compound": "CO/N=C(\\C(=O)N[C@@H]1C(=O)N2C(C(=O)[O-])=C(CSc3n[nH]c(=O)c(=O)n3C)CS[C@H]12)c1c[se]c(N)n1.[Na+]", "log10 MIC": 1.70}
{"compound": "CO/N=C(\\C(=O)N[C@@H]1C(=O)N2C(C(=O)O)=C(CSc3nc(=O)c(O)nn3C)CS[C@H]12)c1c[se]c(N)n1 [Product C, disodium salt]", "log10 MIC": 0.49}
{"compound": "CO/N=C(\\C(=O)N[C@@H]1C(=O)N2C(C(=O)O)=C(CSc3nnc(C)s3)CS[C@H]12)c1c[se]c(N)n1 [Product B, sodium salt]", "log10 MIC": 1.70}

###

Quick list: MIC per entry.
Tested on: Enterobacter aerogenes
experimentalProtocol: Activity in vitro: minimum inhibitory concentration
Type: cell-based
testConditions: Klebsiella aerogenes, Enterobacter aerogenes strain 2
Counter-ions that a name gives are not always drawn.

{"molecule": "CC1=C(C(=O)[O-])N2C(=O)[C@@H](NC(=O)/C(=N\\O)c3c[se]c(N)n3)[C@H]2SC1.[Na+] [Product M]", "MIC [µg/mL]": 1.6}
{"molecule": "CO/N=C(\\C(=O)N[C@@H]1C(=O)N2C(C(=O)O)=C(C)CS[C@H]12)c1c[se]c(N)n1 [Product F, sodium salt]", "MIC [µg/mL]": 0.2}
{"molecule": "CO/N=C(\\C(=O)N[C@@H]1C(=O)N2C(C(=O)O)=C(CSc3nnc(C)s3)CS[C@H]12)c1c[se]c(N)n1 [Product B, sodium salt]", "MIC [µg/mL]": 0.1}
{"molecule": "CO/N=C(\\C(=O)N[C@@H]1C(=O)N2C(C(=O)[O-])=C(CSc3nnnn3C)CS[C@H]12)c1c[se]c(N)n1.[Na+] [Product A]", "MIC [µg/mL]": 0.1}
{"molecule": "CO/N=C(\\C(=O)N[C@@H]1C(=O)N2C(C(=O)O)=C(CSc3nc(=O)c(O)nn3C)CS[C@H]12)c1c[se]c(N)n1 [Product C, disodium salt]", "MIC [µg/mL]": 0.1}
{"molecule": "CC(=O)OCC1=C(C(=O)[O-])N2C(=O)[C@@H](NC(=O)/C(=N\\O)c3c[se]c(N)n3)[C@H]2SC1.[Na+] [Product L]", "MIC [µg/mL]": 0.4}
{"molecule": "CO/N=C(\\C(=O)N[C@@H]1C(=O)N2C(C(=O)[O-])=C(CSc3n[nH]c(=O)c(=O)n3C)CS[C@H]12)c1c[se]c(N)n1.[Na+] [Product G]", "MIC [µg/mL]": 0.1}

###

Test system: Streptococcus pyogenes
experimentalProtocol: Activity in vitro: minimum inhibitory concentration
Format: cell-based
testConditions: Streptococcus pyogenes strain 2, read-out: Minimum inhibitory concentration
Where a name gives a salt, the structure may show the parent alone.
Quick list: MIC per entry.

{"compound": "CO/N=C(\\C(=O)N[C@@H]1C(=O)N2C(C(=O)[O-])=C(CSc3nnnn3C)CS[C@H]12)c1c[se]c(N)n1.[Na+] [Product A]", "MIC": "≤ 0.012 µg/mL"}
{"compound": "CO/N=C(\\C(=O)N[C@@H]1C(=O)N2C(C(=O)O)=C(CSc3nnc(C)s3)CS[C@H]12)c1c[se]c(N)n1 [Product B, sodium salt]", "MIC": "≤ 0.012 µg/mL"}
{"compound": "CO/N=C(\\C(=O)N[C@@H]1C(=O)N2C(C(=O)O)=C(CSc3nc(=O)c(O)nn3C)CS[C@H]12)c1c[se]c(N)n1 [Product C, disodium salt]", "MIC": "≤ 0.012 µg/mL"}

###

Quick list: MIC per entry.
Tested on: Escherichia coli
experimentalProtocol: Activity in vitro: minimum inhibitory concentration
Assay type: cell-based
testConditions: Escherichia coli strain 5
Where a name gives a salt, the structure may show the parent alone.

{"compound": "CO/N=C(\\C(=O)N[C@@H]1C(=O)N2C(C(=O)O)=C(CSc3nnc(C)s3)CS[C@H]12)c1c[se]c(N)n1 [Product B, sodium salt]", "MIC [µg/mL]": 0.4}
{"compound": "CC1=C(C(=O)[O-])N2C(=O)[C@@H](NC(=O)/C(=N\\O)c3c[se]c(N)n3)[C@H]2SC1.[Na+]", "MIC [µg/mL]": 3.1}
{"compound": "CO/N=C(\\C(=O)N[C@@H]1C(=O)N2C(C(=O)[O-])=C(CSc3nnnn3C)CS[C@H]12)c1c[se]c(N)n1.[Na+]", "MIC [µg/mL]": 0.4}
{"compound": "CC(=O)OCC1=C(C(=O)O)N2C(=O)[C@@H](NC(=O)/C(=N\\OC(C)(C)C(=O)O)c3c[se]c(N)n3)[C@H]2SC1 [Product I, disodium salt]", "MIC [µg/mL]": 0.4}
{"compound": "CC(=O)OCC1=C(C(=O)[O-])N2C(=O)[C@@H](NC(=O)/C(=N\\O)c3c[se]c(N)n3)[C@H]2SC1.[Na+]", "MIC [µg/mL]": 0.1}

###

System: Proteus inconstans
Quick list: MIC per entry.

{"compoundStructureString": "CO/N=C(\\C(=O)N[C@@H]1C(=O)N2C(C(=O)[O-])=C(CSc3n[nH]c(=O)c(=O)n3C)CS[C@H]12)c1c[se]c(N)n1.[Na+]", "testTarget": "Proteus inconstans", "measurementQualifier": "=", "MIC (µg/mL)": 0.006}
{"compoundStructureString": "CO/N=C(\\C(=O)N[C@@H]1C(=O)N2C(C(=O)[O-])=C(CSc3nnnn3C)CS[C@H]12)c1c[se]c(N)n1.[Na+]", "testTarget": "Proteus inconstans", "measurementQualifier": "=", "MIC (µg/mL)": 0.025}
{"compoundStructureString": "CC(=O)OCC1=C(C(=O)[O-])N2C(=O)[C@@H](NC(=O)/C(=N\\O)c3c[se]c(N)n3)[C@H]2SC1.[Na+]", "testTarget": "Proteus inconstans", "measurementQualifier": "≤", "MIC (µg/mL)": 0.025}

###

System: Enterobacter cloacae
experimentalProtocol: Activity in vitro: minimum inhibitory concentration
Type: cell-based
testConditions: Enterobacter cloacae strain 3
Counter-ions that a name gives are not always drawn.

{"compound": "CC1=C(C(=O)[O-])N2C(=O)[C@@H](NC(=O)/C(=N\\O)c3c[se]c(N)n3)[C@H]2SC1.[Na+]", "MIC": "> 200 µg/mL"}
{"compound": "CO/N=C(\\C(=O)N[C@@H]1C(=O)N2C(C(=O)O)=C(C)CS[C@H]12)c1c[se]c(N)n1 [Product F, sodium salt]", "MIC": "> 200 µg/mL"}
{"compound": "CO/N=C(\\C(=O)N[C@@H]1C(=O)N2C(C(=O)O)=C(CSc3nc(=O)c(O)nn3C)CS[C@H]12)c1c[se]c(N)n1 [Product C, disodium salt]", "MIC": "> 100 µg/mL"}

###

Test system: Pseudomonas aeruginosa
experimentalProtocol: Activity in vivo: survival of intraperitoneally infected mice
testConditions: sc, 96 h; mice infected i.p. with Pseudomonas aeruginosa; s.c. three times, 1 h, 3 h and 5 h after infection; survival on 4th day; read-out: CD50 (dosage at which 50% of the animals survive)
Where a name gives a salt, the structure may show the parent alone.
Quick list: ED50 per entry.

{"molecule": "CO/N=C(\\C(=O)N[C@@H]1C(=O)N2C(C(=O)[O-])=C(CSc3n[nH]c(=O)c(=O)n3C)CS[C@H]12)c1c[se]c(N)n1.[Na+]", "testTarget": "Pseudomonas aeruginosa", "ED50": "> 200 mg/kg"}
{"molecule": "CO/N=C(\\C(=O)N[C@@H]1C(=O)N2C(C(=O)O)=C(C)CS[C@H]12)c1c[se]c(N)n1 [Product F, sodium salt]", "testTarget": "Pseudomonas aeruginosa", "ED50": "> 200 mg/kg"}
{"molecule": "CO/N=C(\\C(=O)N[C@@H]1C(=O)N2C(C(=O)OCOC(=O)C(C)(C)C)=C(C)CS[C@H]12)c1c[se]c(N)n1", "testTarget": "Pseudomonas aeruginosa", "ED50": "> 100 mg/kg"}
